- System: RPMI-8226 leukemia
- Assay Text: NCI tumour cell line growth inhibition, 48 h
Consider the following molecules; for each one, report its TGI.

Solved cases (5 shown):
Molecule	Assay Metric	Result
O=C1OC2C=CCC1C2 (stereo not given)	TGI	> 100 µM
Cc1cccc2c(NCCCN(C)C)c3c([N+](=O)[O-])ccc(C)c3nc12	TGI	3.17 µM
CC(=O)Nc1ccc(C2C(C(=O)Nc3ccccc3)=C(C)NC(C)=C2C(=O)Nc2ccccc2)cc1	TGI	> 100 µM
COc1cc(C(=O)N(C)N(C)C)cc(OC)c1OC	TGI	> 10 µM
CC(C)N(C(C)C)[PH+]1O[PH+](N(C(C)C)C(C)C)O[PH+](N(C(C)C)C(C)C)O[PH+](N(C(C)C)C(C)C)O1.[C-]#[O+].[C-]#[O+].[C-]#[O+].[C-]#[O+].[C-]#[O+].[C-]#[O+].[C-]#[O+].[C-]#[O+].[Mo].[Mo] (stereo not given)	TGI	> 100 µM

For every listed record, write down its TGI.
1. ONCCCn1cnc2c(NC3CC3)ncnc21
2. Cc1cnc(-c2ccccc2)o1
3. CC(C)N(CCCNC(=O)Nc1ccc(C(C)(C)C)cc1)C[C@H]1O[C@@H](n2ccc3c(N)ncnc32)[C@H](O)[C@@H]1O
4. COc1cc(O)c2c(c1)OCC1(Cc3cc(OC)c(OC)cc31)C2=O (stereo not given)
5. Fc1cccc(C2SCC3=Nc4ccccc4CN32)c1 (stereo not given)

> 100 µM
> 100 µM
> 100 µM
> 100 µM
> 100 µM
